Data origin, for the record: PubChem BioAssay (NCATS)

System: NAD(P)H diaphorase (Clostridium kluyveri)
Experiment: Diaphorse counterscreen qHTS: Assay Interference Panel against the NCATS CANVASS Library (AID 1347362)
Settings: Diaphorase enzyme, resazurin to resorufin fluorescence; series mostly up to 57.5 µM
Records with an inconclusive call do not appear. The source made the active and inactive calls. Calls come from the whole dose curve; as a rule, active = well fitted inhibition curve with a large enough effect; inconclusive = small, poorly fitted or top-dose-only effect; inactive = flat fitted curve, though single readings scatter.
Your reply should match one of these outcome classes. 1 (active), 0 (inactive)

CN1CC[C@@]23c4ccccc4N[C@@H]1[C@@]21CCN(C)[C@@H]3Nc2ccccc21	0
C[n+]1cc2cc(C(N)=O)[nH]c3c(=N)c(Cl)c(N)c1c23	1
COc1cc2c(cc1OC)[C@@H](c1ccc3c(c1)OCO3)C(C)C(C)C2=O (stereo partly drawn)	0

Req: Hi, sorry to bother you, what did the test record for `C[C@]12CC[C@]3(C1)[C@H](CC2=O)C[C@@H](OC(=O)c1ccccc1)[C@H]1[C@](C)(C(=O)O)CCC[C@@]13C` ?
Resp: 0

Req: Hi, sorry to bother you, what did the test record for `Cc1cc(C)c(O)c(C(=O)CC2CC(=O)NC(=O)C2)c1` ?
Resp: 0

* * *

Known max response of a selection of compounds
Assay: qHTS Assay for Lipid Storage Modulators (AID 1519)
Conditions: Drosophila S3 cells, BODIPY lipid droplet/cell ratio, laser cytometry; measured here: cell count channel max response; cells loaded with oleic acid
Results filed as inconclusive are left out.
Unit % implied. Number only.

Use the examples below as a reference point.
CC(=O)[C@@]1(O)CC[C@H]2C3CCC4=CC(=O)CC[C@]4(C)C3CC[C@@]21C (stereo not given in full)	-12.2
Cc1noc(C)c1-c1cc(NCc2ccccc2)ncn1	11.1
COc1ccc(-c2nc3cnc(Nc4cccc(OC)c4)nc3n(C[C@H]3CCCO3)c2=O)cc1	-7.08
COCC(=O)N1CCC2(CC1)CCN(C(c1ccccc1)c1ccccc1)CC2	1.52
CN1CC[C@@]2(CCCN(C(=O)c3cccc(F)c3)C2)C1	3.46
Clc1ccccc1-c1nccc(-n2ccnc2)n1	4.29
Cc1cnc(CNc2ncnc3ccc(-c4c(C)noc4C)cc23)cn1	8.76
COc1ccc(-n2c(=O)c(-c3ccccc3)nc3cnc(N4CCN(C)CC4)nc32)cc1	22

// `COCCNc1ccnc(-c2cccc(NS(C)(=O)=O)c2)n1` : max response value = 14.8

// `NC[C@@H](O)c1ccc(O)c(O)c1` : max response value = 7.41

// `O=C(c1ccco1)N1CCC2(CC1)CCN(c1cccc(-c3ccccc3)c1)CC2` : max response value = -0.036

// `COc1ccc2[nH]cc(CCNc3cc(-c4ccccc4C(F)(F)F)ncn3)c2c1` : max response value = -3.31

// `N#CCCn1c(=O)c(-c2ccc(Cl)cc2)nc2cnc(OCc3ccccc3)nc21` : max response value = 8.68

* * *

Biological target: Ubiquitin carboxyl-terminal hydrolase 1 (Homo sapiens) (UniProt O94782)
Sequence (O94782 whole entry, looked up): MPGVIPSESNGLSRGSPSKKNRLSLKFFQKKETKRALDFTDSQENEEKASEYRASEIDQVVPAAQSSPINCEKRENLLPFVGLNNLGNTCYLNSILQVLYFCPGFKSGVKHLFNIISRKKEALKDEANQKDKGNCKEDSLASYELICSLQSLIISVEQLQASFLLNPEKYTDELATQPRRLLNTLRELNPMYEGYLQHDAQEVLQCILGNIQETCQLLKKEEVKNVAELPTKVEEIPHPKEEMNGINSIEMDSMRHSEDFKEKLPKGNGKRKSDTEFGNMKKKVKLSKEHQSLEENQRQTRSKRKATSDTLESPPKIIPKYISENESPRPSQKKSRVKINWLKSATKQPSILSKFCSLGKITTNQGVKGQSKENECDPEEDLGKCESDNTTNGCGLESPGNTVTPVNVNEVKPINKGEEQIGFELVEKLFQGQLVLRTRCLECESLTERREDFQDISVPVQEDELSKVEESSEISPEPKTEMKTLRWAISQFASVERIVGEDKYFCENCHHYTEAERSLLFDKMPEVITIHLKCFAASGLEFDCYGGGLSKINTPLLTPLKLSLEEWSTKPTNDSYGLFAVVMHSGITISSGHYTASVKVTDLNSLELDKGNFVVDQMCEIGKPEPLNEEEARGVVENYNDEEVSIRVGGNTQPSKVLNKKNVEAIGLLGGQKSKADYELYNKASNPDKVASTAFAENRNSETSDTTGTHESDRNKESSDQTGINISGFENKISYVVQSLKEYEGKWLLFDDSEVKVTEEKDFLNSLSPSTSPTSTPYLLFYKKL
Test: Inhibitors of USP1/UAF1: Pilot qHTS (AID 504865);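 note: rhodamine fluorescence freed from ubiquitin-rhodamine substrate followed over time; top concentration of the series differs between compounds; % is set by controls: 0 for no effect and ±100 for the full control effect; nearly all actives have a fitted effect of over 35% in size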
Conditions: purified USP1/UAF1, Ub-rhodamine cleavage fluorescence; series mostly up to 54.9 µM
Results filed as inconclusive are left out. Active and inactive are the calls of the source. Calls come from the whole dose curve; as a rule, active = well fitted inhibition curve with a large enough effect; inconclusive = small, poorly fitted or top-dose-only effect; inactive = flat fitted curve, though single readings scatter.
Your reply should match one of these outcome classes. active, inactive

Some entries whose results are on file:
COc1ccc(-n2c(=O)c(-c3ccc(Cl)cc3)nc3cnc(N4CCNCC4)nc32)cc1	inactive
COc1ccc(-c2nc3cnc(N4CCN(C)CC4)nc3n(Cc3cccc(OC)c3)c2=O)cc1	inactive
Cc1cnc(CNc2ncnc3ccc(-c4c(C)noc4C)cc23)cn1	inactive
CC(=O)NCCNc1cc(-c2ccccc2C(F)(F)F)ncn1	inactive
Cn1c(=O)c(-c2ccc(Cl)cc2)nc2cnc(Oc3cccc(Cl)c3)nc21	inactive

Req: Hi, sorry to bother you, what did the test record for `O=c1c(-c2ccc(F)cc2)nc2cnc(N3CCNCC3)nc2n1C1CC1` ?
Resp: inactive

Req: Hi, sorry to bother you, what did the test record for `CC(=O)NCCNc1ccnc(-c2ccccc2C(F)(F)F)n1` ?
Resp: inactive

Req: Hi, sorry to bother you, what did the test record for `Cc1noc(C)c1-c1cc(Nc2ccc(F)cc2)ncn1` ?
Resp: inactive
